Reference source for all entries: the supplement of paper PMC6897291

Test system: U-2932
assayExplanation: growth inhibition by drug alone (1 - RLU/untreated control) (fraction); higher = stronger inhibition
testParameters: 10 nM; time (day): 6; 177Lu-lilotomab satetraxetan 0 ug/ml
readout: growth inhibition by drug alone

[
  {
    "compound": "CS(=O)(=O)c1cccc(CNc2nc(Nc3ccc4c(c3)CCC(=O)N4)ncc2C(F)(F)F)c1",
    "experimentalValue": 0.0705
  },
  {
    "compound": "CC(C)OC(=O)C1=CN(C(=O)c2ccc(F)c(F)c2)CC(C)(C)c2c1[nH]c1ccccc21",
    "experimentalValue": -0.191
  },
  {
    "compound": "S=C(NCc1ccc2c(c1)OCO2)N1CCN(c2ncnc3c2oc2ccccc23)CC1",
    "experimentalValue": -0.0914
  }
]

Next up:
Lookup: Observed growth inhibition by drug alone on U-2932 for CC(C)C(=O)Nc1ccc([N+](=O)[O-])c(C(F)(F)F)c1 [Flutamide (Eulexin)] , please.
Found: -0.0414

====

Tested on: U-2932
assayExplanation: growth inhibition by drug alone (1 - RLU/untreated control) (fraction); higher = stronger inhibition
testParameters: 10 nM; time (day): 6; 177Lu-lilotomab satetraxetan 0 ug/ml
readout: growth inhibition by drug alone
The reply should be a number, written without any unit.

# count of solved cases: 5
[
  {
    "compound": "Cc1ccc(C(=O)N(CCCN)[C@@H](c2nc3cc(Cl)ccc3c(=O)n2Cc2ccccc2)C(C)C)cc1",
    "growth inhibition by drug alone": 0.372
  },
  {
    "compound": "Nc1ccccc1NC(=O)c1ccc(CNC(=O)OCc2cccnc2)cc1",
    "growth inhibition by drug alone": 0.0268
  },
  {
    "compound": "Cc1ccc([C@@H]2O[C@H](CO)[C@@H](O)[C@H](O)[C@H]2O)cc1Cc1ccc(-c2ccc(F)cc2)s1",
    "growth inhibition by drug alone": 0.0177
  },
  {
    "compound": "O=c1oc2c(O)c(O)cc3c(=O)oc4c(O)c(O)cc1c4c23",
    "growth inhibition by drug alone": 0.0286
  },
  {
    "compound": "Cc1cccc(-c2[nH]c(C(C)(C)C)nc2-c2ccc3nccnc3c2)n1",
    "growth inhibition by drug alone": -0.0718
  }
]

Lookup: What growth inhibition by drug alone appears in the records for this compound with U-2932? O=C(O)CC[C@H]1CC[C@@](c2cc(F)ccc2F)(S(=O)(=O)c2ccc(Cl)cc2)CC1
Found: -0.0883

Lookup: Hi! What's the reported growth inhibition by drug alone for COc1ccc(CCN(C)CCCOc2ccc(S(=O)(=O)c3c(C(C)C)n(C)c4ccccc34)cc2)cc1OC on U-2932?
Found: -0.0299

====

Test system: RIVA
assayExplanation: growth inhibition by drug plus 177Lu-lilotomab satetraxetan (1 - RLU/untreated control) (fraction); higher = stronger inhibition
testParameters: 10 nM; time (day): 3; 177Lu-lilotomab satetraxetan 0.5 ug/ml
Structures can show the parent of a compound that is named as a salt.
I would appreciate it if you labelled entries satisfied when growth inhibition by drug plus 177Lu-lilotomab satetraxetan is 0.4 or higher, otherwise not satisfied.

[
  {
    "compound": "O=C(O)CC[C@H]1CC[C@@](c2cc(F)ccc2F)(S(=O)(=O)c2ccc(Cl)cc2)CC1",
    "qualitativeLabel": "satisfied"
  },
  {
    "compound": "C[C@]12CC[C@@H]3c4ccc(O)cc4C[C@@H](CCCCCCCCC[S+]([O-])CCCC(F)(F)C(F)(F)F)[C@H]3[C@@H]1CC[C@@H]2O (stereo partly drawn)",
    "qualitativeLabel": "satisfied"
  },
  {
    "compound": "Cc1ccnc(NS(=O)(=O)c2ccc(NC(=O)Nc3ccc(S(=O)(=O)Nc4nccc(C)n4)cc3)cc2)n1",
    "qualitativeLabel": "satisfied"
  },
  {
    "compound": "CC[C@@H]1C(=O)N(C)c2cnc(Nc3ccc(C(=O)N[C@H]4CC[C@H](N5CCN(CC6CC6)CC5)CC4)cc3OC)nc2N1C(C)C",
    "qualitativeLabel": "satisfied"
  },
  {
    "compound": "C[C@]1(c2nc3c(C(N)=O)cccc3[nH]2)CCCN1",
    "qualitativeLabel": "not satisfied"
  },
  {
    "compound": "Nc1ccn([C@@H]2O[C@H](CO)[C@@H](O)[C@@H]2O)c(=O)n1",
    "qualitativeLabel": "satisfied"
  },
  {
    "compound": "O=C1CN2Cc3c(ccc(Cl)c3Cl)N=C2N1 [Anagrelide hydrochloride]",
    "qualitativeLabel": "satisfied"
  },
  {
    "compound": "O=C1c2ccccc2-c2nc3nonc3nc21",
    "qualitativeLabel": "satisfied"
  }
]

Lookup: Please tell me: is the compound CO[C@@H](C(=O)N1Cc2[nH]nc(NC(=O)c3ccc(N4CCN(C)CC4)cc3)c2C1)c1ccccc1 at or over 0.4 in terms of growth inhibition by drug plus 177Lu-lilotomab satetraxetan?
Found: satisfied

Lookup: Threshold query (growth inhibition by drug plus 177Lu-lilotomab satetraxetan >= 0.4) on COc1cc(Nc2ncc(F)c(Nc3ccc4c(n3)N(COP(=O)(O)O)C(=O)C(C)(C)O4)n2)cc(OC)c1OC
Found: not satisfied

Lookup: Kindly determine if growth inhibition by drug plus 177Lu-lilotomab satetraxetan recorded for Nc1ccccc1NC(=O)c1ccc(CNC(=O)OCc2cccnc2)cc1 is above or exactly 0.4.
Found: satisfied

====

System: RIVA
assayExplanation: growth inhibition by drug plus 177Lu-lilotomab satetraxetan (1 - RLU/untreated control) (fraction); higher = stronger inhibition
testParameters: 100 nM; time (day): 6; 177Lu-lilotomab satetraxetan 0.5 ug/ml
readout: growth inhibition by drug plus 177Lu-lilotomab satetraxetan

Solved cases below.
[
  {
    "molecule": "CN(N=O)C(=O)N[C@@H](C=O)[C@@H](O)[C@H](O)[C@H](O)CO [Streptozotocin (Zanosar)]",
    "experimentalValue": 0.445
  },
  {
    "molecule": "N#CCNC(=O)c1ccc(-c2ccnc(Nc3ccc(N4CCOCC4)cc3)n2)cc1",
    "experimentalValue": 0.446
  }
]

Lookup: Quick check: growth inhibition by drug plus 177Lu-lilotomab satetraxetan on RIVA, item CN(NC(=O)CC(=O)NN(C)C(=S)c1ccccc1)C(=S)c1ccccc1 ?
Found: 0.988

Lookup: Tell me reported growth inhibition by drug plus 177Lu-lilotomab satetraxetan for c1ccc2c(-c3cnn4cc(-c5ccc(N6CCNCC6)cc5)cnc34)ccnc2c1 , tested with RIVA.
Found: 0.436

====

System: U-2932
assayExplanation: growth inhibition by drug plus 177Lu-lilotomab satetraxetan (1 - RLU/untreated control) (fraction); higher = stronger inhibition
testParameters: 1000 nM; time (day): 3; 177Lu-lilotomab satetraxetan 1 ug/ml
Structures can show the parent of a compound that is named as a salt.
readout: growth inhibition by drug plus 177Lu-lilotomab satetraxetan
The answer should be a number; do not append a unit.

Worked cases, growth inhibition by drug plus 177Lu-lilotomab satetraxetan given:
[
  {
    "molecule": "CCOc1ccn(-c2ccc(F)cc2)c(=O)c1C(=O)Nc1ccc(Oc2ccnc(N)c2Cl)c(F)c1",
    "experimentalValue": 0.0517
  },
  {
    "molecule": "COc1cccc2c1C(=O)c1c(O)c3c(c(O)c1C2=O)C[C@@](O)(C(C)=O)C[C@@H]3O[C@H]1C[C@H](N)[C@H](O)[C@H](C)O1 [Daunorubicin HCl (Daunomycin HCl)]",
    "experimentalValue": 0.978
  },
  {
    "molecule": "Nc1ncn([C@@H]2O[C@H](CO)[C@@H](O)[C@H]2O)c(=O)n1 [Azacitidine (Vidaza)]",
    "experimentalValue": -0.0673
  }
]

Query molecule follows.
Lookup: Which value of growth inhibition by drug plus 177Lu-lilotomab satetraxetan has been reported for CO[C@H]1/C=C\C=C(/C)C(=O)NC2=CC(=O)C(NCCN(C)C)=C(C[C@@H](C)C[C@H](OC)[C@H](O)[C@@H](C)/C=C(\C)[C@@H]1OC(N)=O)C2=O [17-DMAG HCl (Alvespimycin)] in the records?
Found: 0.956

====

Tested on: U-2932
assayExplanation: growth inhibition by drug alone (1 - RLU/untreated control) (fraction); higher = stronger inhibition
testParameters: 1000 nM; time (day): 6; 177Lu-lilotomab satetraxetan 0 ug/ml
Counter-ions that a name gives are not always drawn.
readout: growth inhibition by drug alone

[
  {
    "molecule": "CNC(=O)c1cc(COc2nnc(Nc3ccc(Cl)cc3)c3ccoc23)ccn1 [Telatinib (BAY 57-9352)]",
    "experimentalValue": -0.229
  },
  {
    "molecule": "COC1=CC(c2cc3ccccc3[nH]2)=N/C1=C\\c1[nH]c(C)cc1C [Obatoclax mesylate (GX15-070)]",
    "experimentalValue": -0.0101
  },
  {
    "molecule": "C#Cc1cccc(Nc2ncnc3cc(OCCOC)c(OCCOC)cc23)c1 [Erlotinib HCl]",
    "experimentalValue": 0.621
  }
]

Could you now consider this next molecule?
Lookup: Consider the molecule CN(Cc1cnc2nc(N)nc(N)c2n1)c1ccc(C(=O)N[C@@H](CCC(=O)O)C(=O)O)cc1 [Abitrexate (Methotrexate)] and give its measured growth inhibition by drug alone.
Found: 0.968
